Origin of the recorded values: PubChem BioAssay

Target: Fibroblast growth factor 10 (Homo sapiens) (UniProt O15520)
Sequence (O15520 whole entry, looked up): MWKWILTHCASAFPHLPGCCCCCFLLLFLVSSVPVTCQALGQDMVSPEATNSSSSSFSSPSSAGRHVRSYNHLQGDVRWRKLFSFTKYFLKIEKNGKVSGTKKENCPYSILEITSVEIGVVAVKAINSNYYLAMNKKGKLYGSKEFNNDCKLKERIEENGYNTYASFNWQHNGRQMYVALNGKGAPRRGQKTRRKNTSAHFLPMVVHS
Experiment: FGF10 binders on small-molecule microarrays, primary screen, biochemical, small-molecule microarray, 635 nm fluorescence (AID 1102)
Settings: FGF10 binding, fluorescence 635 nm, higher = more signal
# if value of composite z-score reaches 0.5, tag Yes; if it stays below, tag No

compound	label value
C=CCNC(=O)[C@H]1[C@@H]2C(=O)O[C@@H](c3ccccc3)[C@@H](c3ccccc3)N2[C@@H](c2ccc(O)cc2)[C@]12C(=O)Nc1ccc(C#CCNC(N)=O)cc12	No
CO[C@@H]1COC(=O)[C@@H]2CCCN2C(=O)CC=C[C@@H](C)[C@H](OC)COC(=O)[C@@H]2CCCN2C(=O)CC=C[C@H]1C	Yes
CCOC(=O)C1=C[C@@H](c2ccccc2)N(S(=O)(=O)c2ccc(C)cc2)[C@H]1c1ccc(F)cc1	Yes
COc1cccc([C@@H]2[C@@H](C)CC[C@H]3C(=O)N4[C@H](c5cccc(OC)c5)[C@@H](C)CC[C@H]4C(=O)N23)c1	Yes
C=C(C)[C@@H]1CC=C(C(O)C2C=CC3C(=O)NC(=O)C3N2Nc2ccccn2)CC1 (stereo not given in full)	Yes
CCCNC(=O)[C@@H]1c2ccccc2C(=O)N(Cc2cc(F)cc(C(F)(F)F)c2)[C@H]1c1ccc(CO)cc1	Yes
CN1C2C=C(c3ccc(CO)cc3)C(C3C(=O)N(C(N)=O)C(=O)C32)C1c1cccs1 (stereo not given)	No
C=CCNC(=O)[C@H]1[C@@H]2C(=O)O[C@@H](c3ccccc3)[C@@H](c3ccccc3)N2[C@@H](c2ccccc2OCCO)[C@]12C(=O)N(C(=O)OCCOC)c1ccc(C#CCC(C(=O)OC)C(=O)OC)cc12	Yes
C[C@@H]1CC[C@H]2C(=O)N3[C@@H](CC[C@@H](C)[C@@H]3c3cccc(N4CCOCC4)c3)C(=O)N2[C@H]1c1cccc(Br)c1	Yes
CC(C)(C)OC(=O)CC[C@@]1(C(=O)NCc2ccccc2)N=C(c2ccc(OCCCO)cc2)O[C@@H]1c1ccccc1	Yes
O=C(N1CCCCC1)[C@@]1(CCS(=O)(=O)c2ccccc2)N=C(c2ccc(OCCCO)cc2)O[C@H]1c1ccccc1	Yes
CC(=O)NCCCC[C@@H]1NC(=O)[C@H]2C[C@@H](C(=O)NCCCCCCN(C)C)[C@@H](c3ccc(O)cc3)N2C1=O	Yes
COc1cccc([C@@H]2[C@@H](C)CC[C@H]3C(=O)N(C)[C@@H](C(C)C)C(=O)N23)c1	No
COC(=O)[C@@]1(Cc2ccccc2)[C@H]2c3cc(C(=O)N4CCCC4)n(CCN4CNCC4=O)c3C[C@H]2CN1C(=O)c1ccccc1	No
C=C(CCCC)/C(=C/C[C@H](OC(=O)c1ccncc1)c1cccc(OCCO)c1)c1cc(C(=O)OC)ccc1OC	Yes

====

Experiment: small-molecule microarray binders of probe aLefty2, primary screen, biochemical, biotinylated probe, 635/667 nm fluorescence (AID 1094);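 also: score merges spot fluorescence near 667 nm with spot signal-to-noise ratio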
Details: higher = more signal
# if value of composite z-score reaches 0.05, tag fulfilled; if it stays below, tag not fulfilled

compound	label value
O=C1c2ccccc2[C@](Cc2ccccc2I)(C(=O)O)[C@H](c2ccc(CO)cc2)N1C1CCCCC1	fulfilled
CC(C)[Si](OCCCNS(=O)(=O)c1ccc(Br)cc1)(C(C)C)C(C)C	not fulfilled
CC(C)(C)OC(=O)CC[C@@]1(C(=O)NCc2ccccc2)N=C(c2ccc(OCCCO)cc2)O[C@@H]1c1ccccc1	fulfilled
C=C(C)[C@@H]1CC=C(C(O)C2C=CC3C(=O)NC(=O)C3N2Nc2ccccn2)CC1 (stereo partly drawn)	fulfilled
CCOC(=O)C1=CCC(c2cccc3ccccc23)N(S(=O)(=O)c2ccc(C)cc2)C1 (stereo not drawn)	fulfilled
C[C@@H]1CC[C@H]2C(=O)N3[C@@H](CC[C@@H](C)[C@@H]3c3cccc(N4CCOCC4)c3)C(=O)N2[C@H]1c1cccc(N2CCOCC2)c1	not fulfilled
C[C@]1(C(=O)NCCN2CCOCC2)c2ccccc2C(=O)N(Cc2ccccc2)[C@H]1c1ccc(CO)cc1	not fulfilled
O=C1c2ccccc2[C@](Cc2ccccc2I)(C(=O)NCc2ccccc2)[C@H](c2ccc(CO)cc2)N1Cc1ccccc1C(F)(F)F	not fulfilled
COCCCNC(=O)[C@@]1(c2ccc([N+](=O)[O-])cc2)CC(=O)N(C2CCCCC2)[C@@H]1c1ccc(CO)cc1	not fulfilled
COc1ccc(C(O)C2C=CC3C(=O)N(C)C(=O)C3N2N2CCCCC2)cc1OCc1ccccc1 (stereo not drawn)	fulfilled
CO[C@@H]1COC(=O)[C@H](C)NC(=O)CC=C[C@@H](C)[C@H](NS(=O)(=O)c2ccc(C)cc2)COC(=O)CC=C[C@@H]1C	not fulfilled
C=CCC(OC(C)=O)[C@@H]1[C@@H](N(Cc2cccc3ccccc23)C(=O)Cc2ccc(F)cc2)c2cc(OCCCO)ccc2N1C(=O)Cc1ccc2ccccc2c1 (stereo partly drawn)	not fulfilled
CCc1cccc(NC(=O)O[C@H]2[C@H](OC(=O)Nc3ccccc3)[C@@H](OC(=O)Nc3ccccc3)[C@@H](OC)O[C@@H]2CO)c1	not fulfilled
C[C@H]1C2[C@H](Cc3ccccc3)NC(=O)[C@]23C(=O)N[C@H](Cc2ccccc2)C(=O)N[C@@H](Cc2ccccc2)C(=O)NC/C=C\C/C=C/C3[C@@H]2O[C@]12C (stereo partly drawn)	not fulfilled
CCCCCCc1nc(-c2cc(C)c(OC)c(C)c2)cc2c1[Si](C(C)C)(C(C)C)O[C@H]2c1ccccc1	not fulfilled
C=CC[C@]1(C(=O)OC)N=C(c2ccc(OCCCO)cc2)O[C@H]1c1ccccc1CN=[N+]=[N-]	fulfilled
C=C[C@H](OC)[C@@H](OC(=O)Nc1ccc(SC)cc1)c1ccc(O)c(F)c1	not fulfilled
